Cited source for all entries: patent US20260008852A1

Target Of Assay: T1, his-tagged B7-H3 (UniProt Q5ZPR3-2 29-245, limits assumed)
T1 construct: also called CD276; not shown: His tag
T1 sequence (looked up): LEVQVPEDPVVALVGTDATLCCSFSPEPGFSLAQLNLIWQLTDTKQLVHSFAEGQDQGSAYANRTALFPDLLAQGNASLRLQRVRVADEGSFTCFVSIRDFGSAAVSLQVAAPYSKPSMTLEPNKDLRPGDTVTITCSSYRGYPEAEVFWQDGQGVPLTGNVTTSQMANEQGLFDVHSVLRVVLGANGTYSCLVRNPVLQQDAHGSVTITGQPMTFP
Assay Remarks: SPR, Carterra LSA; binder captured by anti-human Fc, his-tagged B7-H3 injected
Parameter Measured: Kd (nM)
Give your result in nM as a bare value.

1) 40511p1.1.D6 scFv-Fc (scFv, V domains shown, Tested as scFv-Fc supernatant) VH: DVQLVESGGGVVRPGESLTLSCAASGFTINSYAVSWVRQAPGEGLEWVSGISGSGVRYYADSVKGRFTISRDNSNNTLYLQMNSLRAEDTAVYYCARSNKVTWNNFFDYWGLGTLVTVSS VL: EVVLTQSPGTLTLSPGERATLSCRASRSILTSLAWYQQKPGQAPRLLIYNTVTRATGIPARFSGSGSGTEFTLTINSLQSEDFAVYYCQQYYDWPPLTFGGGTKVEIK: 0.325

Reported Kd ( 40633p1.2.D1 scFv-Fc (scFv, V domains shown, Tested as scFv-Fc supernatant) VH: EVQLLESGGGLVQPGGSLRLSCAASGFTFDVYGMSWVRQAPGKGLEWVSAINWNGGSTYYADSVKGRFTISRDNSENTLYLQMNSLRAEDTAVYYCAKEKWKHFIYYGMDVWGQGTTVTVSS VL: QSVLTQPASASGTPGQTVSISCSGSSSNIDSNTANWYQQLPGTAPKLLIYSNNQRPSGVPDRFSGSKSDTSASLAISGLQSEDEGDYYCSAWDDNLNGWLFGGGTKLTVL ) = 39.8
